System: 362531-283-R-J2-PDC complex spheroid viability;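 further: spheroids exposed to the agents for 7 days before readout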
experiment: Anticancer human tumor 362531-283-R-J2-PDC patient-derived colon adenocarcinoma cell line growth inhibition [RAS]
test.parameters: curve of first compound; second compound 0.0316 µM
From the text: RAS pathway inhibitors in Combinations in Complex Spheroids A high-throughput screen of multi-cell type tumor spheroids was designed to identify active combinations of RAS pathway inhibitors and targeted small molecules. Complex spheroids include a stromal component modeled by human endothelial cells (HUVEC) and fibroblasts modeled by human mesenchymal stem cells (MSCs). […] Compounds. […] If the clinical Cmax for an agent had not been determined, the highest concentration tested was 10 microM. […]
value.type: IC50 (µM)

- molecule: "CCN1CCN(Cc2ccc(Nc3ncc(F)c(-c4cc(F)c5nc(C)n(C(C)C)c5c4)n3)nc2)CC1 + C#Cc1c(F)ccc2cc(O)cc(-c3ncc4c(N5CC6CCC(C5)N6)nc(OCC56CCCN5CC(F)C6)nc4c3F)c12"
  system.name: "362531-283-R-J2-PDC complex spheroid viability"
  value.type: "IC50"
  modifier: "="
  meas.value: 0.504
- molecule: "Nc1ccn(C2OC(CO)C(O)C2(F)F)c(=O)n1 (configuration not stated) + C#Cc1c(F)ccc2cc(O)cc(-c3ncc4c(N5CC6CCC(C5)N6)nc(OCC56CCCN5CC(F)C6)nc4c3F)c12"
  system.name: "362531-283-R-J2-PDC complex spheroid viability"
  value.type: "IC50"
  modifier: "="
  meas.value: 0.17
- molecule: "CC(=O)OC12COC1CC(O)C1(C)C(=O)C(O)C3=C(C)C(OC(=O)C(O)C(NC(=O)OC(C)(C)C)c4ccccc4)CC(O)(C(OC(=O)c4ccccc4)C21)C3(C)C (configuration not stated) + C#Cc1c(F)ccc2cc(O)cc(-c3ncc4c(N5CC6CCC(C5)N6)nc(OCC56CCCN5CC(F)C6)nc4c3F)c12"
  system.name: "362531-283-R-J2-PDC complex spheroid viability"
  value.type: "IC50"
  modifier: "="
  meas.value: 0.169
- molecule: "CC1(C)CCC(Nc2ncc(C(F)(F)F)c(-c3c[nH]c4c(P(C)(C)=O)c(C#N)ccc34)n2)CN1 (configuration not stated) + C#Cc1c(F)ccc2cc(O)cc(-c3ncc4c(N5CC6CCC(C5)N6)nc(OCC56CCCN5CC(F)C6)nc4c3F)c12"
  system.name: "362531-283-R-J2-PDC complex spheroid viability"
  value.type: "IC50"
  modifier: ">"
  meas.value: 0.3
- molecule: "CC(C)n1nc(-c2ccc3oc(N)nc3c2)c2c(N)ncnc21 + C=CC(=O)N1CCN(c2nc(OCC3CCCN3C)nc3c(F)c(-c4nc(N)cc(C)c4C(F)(F)F)c(Cl)cc23)C(C)C1"
  system.name: "362531-283-R-J2-PDC complex spheroid viability"
  value.type: "IC50"
  modifier: ">"
  meas.value: 0.1
- molecule: "CC(Nc1ccc2c(c1)OCCn1cc(N3C(=O)OCC3C(F)F)nc1-2)C(N)=O (configuration not stated) + C=CC(=O)N1CCN(c2nc(OCC3CCCN3C)nc3c(F)c(-c4nc(N)cc(C)c4C(F)(F)F)c(Cl)cc23)C(C)C1"
  system.name: "362531-283-R-J2-PDC complex spheroid viability"
  value.type: "IC50"
  modifier: "="
  meas.value: 0.666
- molecule: "CCc1c2c(nc3ccc(O)cc13)-c1cc3c(c(=O)n1C2)COC(=O)[C@]3(O)CC + C#Cc1c(F)ccc2cc(O)cc(-c3ncc4c(N5CC6CCC(C5)N6)nc(OCC56CCCN5CC(F)C6)nc4c3F)c12"
  system.name: "362531-283-R-J2-PDC complex spheroid viability"
  value.type: "IC50"
  modifier: "="
  meas.value: 0.0422
